- Tested on: HT-29
- Assay Notes: Cytotoxicity against human HT29 cells after 48 hrs by SRB assay
- Assay type: functional, cell-based
- Conditions: Homo sapiens, HT-29, 48 h; read-out: LC50 (the source's name)

Smiles: C/C=C1\NC(=O)[C@H](Cc2ccccc2)NC(=O)[C@@H](C(C)C)NC(=O)[C@@H]([C@H](C)CC)NC(=O)[C@H](NC(=O)[C@H](NC(=O)[C@H](CCCN)NC(=O)[C@H]2CCCN2C(=O)[C@H](NC(=O)[C@@H](NC(=O)[C@@H](NC(=O)[C@H](NC(=O)CCCC(C)C)C(C)C)[C@@H](C)O)C(C)C)C(C)C)[C@H](C)CC)COC(=O)[C@H](C(C)C)NC1=O
Value Unit: nM
CC50: 1970

Smiles: C/C=C1\NC(=O)[C@H](Cc2ccccc2)NC(=O)[C@@H](C(C)C)NC(=O)[C@@H]([C@H](C)CC)NC(=O)[C@H](NC(=O)[C@H](NC(=O)[C@H](CCCN)NC(=O)[C@H]2CCCN2C(=O)[C@H](NC(=O)[C@@H](NC(=O)[C@@H](NC(=O)CNC(=O)CCCC(C)C)[C@@H](C)O)C(C)C)C(C)C)[C@H](C)CC)[C@H](C)OC(=O)[C@H](C(C)C)NC1=O
Value Unit: nM
CC50: 5410

Smiles: C/C=C1\NC(=O)[C@H](Cc2ccccc2)NC(=O)[C@@H](C(C)C)NC(=O)[C@@H]([C@H](C)CC)NC(=O)[C@H](NC(=O)[C@H](NC(=O)[C@H](CCCN)NC(=O)[C@H]2CCCN2C(=O)[C@H](NC(=O)[C@H](CCC(=O)O)NC(=O)[C@@H](NC(=O)[C@H](NC(=O)CCCC(C)C)C(C)C)[C@@H](C)O)C(C)C)[C@H](C)CC)[C@H](C)OC(=O)[C@H](C(C)C)NC1=O
Value Unit: nM
CC50: 2330

The origin of these recorded values is ChEMBL document CHEMBL1156597.
